Source: patent US11191762B2

# Assay System: human APJ receptor (Homo sapiens (Human), UniProt P35414)
# Sequence (P35414 whole entry): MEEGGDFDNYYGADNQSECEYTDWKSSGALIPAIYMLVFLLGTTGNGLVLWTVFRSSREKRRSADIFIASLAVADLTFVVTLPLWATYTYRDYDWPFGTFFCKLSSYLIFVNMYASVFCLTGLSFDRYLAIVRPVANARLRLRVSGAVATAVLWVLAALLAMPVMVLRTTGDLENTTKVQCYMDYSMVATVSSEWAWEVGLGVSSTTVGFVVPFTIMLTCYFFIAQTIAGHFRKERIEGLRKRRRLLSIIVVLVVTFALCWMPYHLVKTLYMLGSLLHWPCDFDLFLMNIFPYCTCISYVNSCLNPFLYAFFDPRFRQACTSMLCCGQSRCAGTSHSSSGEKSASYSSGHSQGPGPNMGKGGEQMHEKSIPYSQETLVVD
# Assay Details: biochemical
# Assay type: biochemical
# Stated Conditions: [35S]GTPγS binding, membranes from CHO cells stably expressing human APJ receptor; read-out: Activity hAPJ SPA EC50 IP
Quantity: pEC50
Please treat pEC50 as minus the base-10 logarithm of the molar concentration.

stdin: Using the record for COCc1nnc(NS(=O)(=O)[C@@H](C)[C@@H](OC(C)C)c2ncc(C)cn2)n1-c1cc(OC)ccc1Cl [Example 163.0] , state its measured pEC50.
stdout: 7.40

----------
# Assay System: human APJ receptor (Homo sapiens (Human), UniProt P35414)
# Assay Details: biochemical
# Assay type: biochemical
# Stated Conditions: [35S]GTPγS binding, membranes from CHO cells stably expressing human APJ receptor; read-out: Activity hAPJ SPA EC50 IP
yes if EC50 is below 200 nM. no if not; exact matches included in no.

Molecule: COc1cccc(OC)c1-n1c(NS(=O)(=O)[C@@H](C)[C@H](C)c2ncc(C)cn2)nnc1-c1cccc2c1CC(=O)N2 [Example 17.0]
Assay System: human APJ receptor (Homo sapiens (Human), UniProt P35414)
Qualitative Label: no
//
Molecule: COCCc1nnc(NS(=O)(=O)[C@@H](C)[C@H](OC)c2ncc(Cl)cn2)n1C(COC)COC [Example 146.0]
Assay System: human APJ receptor (Homo sapiens (Human), UniProt P35414)
Qualitative Label: no
//
Molecule: CC[C@@H](OC)c1nnc(NS(=O)(=O)[C@@H](C)[C@H](C)c2ncc(Cl)cn2)n1-c1c(OC)ncnc1OC (single isomer, unassigned) [Example 6.0]
Assay System: human APJ receptor (Homo sapiens (Human), UniProt P35414)
Qualitative Label: no
//
Molecule: COc1cccc(OC)c1-n1c(Cc2ccsc2)nnc1NS(=O)(=O)[C@@H](C)[C@H](C)c1ncc(Cl)cn1 [Example 38.0]
Assay System: human APJ receptor (Homo sapiens (Human), UniProt P35414)
Qualitative Label: yes
//
Molecule: COc1cccc(OC)c1-n1c(CCc2ccco2)nnc1NS(=O)(=O)[C@@H](C)[C@H](C)c1ncc(Cl)cn1 [Example 36.0]
Assay System: human APJ receptor (Homo sapiens (Human), UniProt P35414)
Qualitative Label: yes
//
Molecule: COCc1nnc(NS(=O)(=O)[C@@H](C)[C@H](OC)c2ncc(Cl)cn2)n1-c1ccccc1OC [Example 132.0]
Assay System: human APJ receptor (Homo sapiens (Human), UniProt P35414)
Qualitative Label: yes

stdin: Lab note: confirm whether the reported EC50 for this molecule is below 200 nM, equality not counting. molecule: COc1cccc(OC)c1-n1c(C[C@@H]2CCCO2)nnc1NS(=O)(=O)[C@@H](C)[C@H](C)c1ncc(Cl)cn1 (mixture of isomers) [Example 46.0]
stdout: no

stdin: Lab note: confirm whether the reported EC50 for this molecule is below 200 nM, equality not counting. molecule: COc1cccc(OC)c1-n1c(Cc2ccc(C)cn2)nnc1NS(=O)(=O)[C@@H](C)[C@H](C)c1ncc(C)cn1 [Example 20.0]
stdout: no

stdin: Lab note: confirm whether the reported EC50 for this molecule is below 200 nM, equality not counting. molecule: CO[C@H](c1ncc(Cl)cn1)[C@H](C)S(=O)(=O)Nc1nnc(C)n1C1(C)CC1 [Example 55.0]
stdout: no
